Recorded measurements of NEUTROPHIL, one per entry
species on record: Rattus norvegicus; assay: DrugMatrix - Regimen: Daily Repeat; format: toxicity, organism-based, Sprague-Dawley; parameters: regimen Daily Repeat, gender Male, age 6-8 weeks; conditions: in vivo, po, 1500 mg/kg, 120 h, tissue Blood, route oral GAVAGE, dose level High, time 5 day, vehicle .5 % CMC
Just the number please, in %, no unit attached.

MOLECULE: CC(C)Oc1ccc2c(=O)c(-c3ccccc3)coc2c1 [IPRIFLAVONE]
NEUTROPHIL (%): 8.33

Query block: Please give the measured NEUTROPHIL for this molecule: CN(C)[C@@H]1C(O)=C(C(N)=O)C(=O)[C@@]2(O)C(O)=C3C(=O)c4c(O)ccc(Cl)c4[C@@](C)(O)[C@H]3C[C@@H]12 [CHLORTETRACYCLINE]
Result block: 6.67

Query block: Would you kindly repeat that for CC(C)=CCC/C(C)=C/CO [GERANIOL] ?
Result block: 10.33

Query block: Would you kindly repeat that for O=c1cnn([C@@H]2O[C@H](CO)[C@@H](O)[C@H]2O)c(=O)[nH]1 [6-AZAURIDINE] ?
Result block: 8.33

Query block: Would you kindly repeat that for COC(=O)Nc1nc2ccc([S+]([O-])c3ccccc3)cc2[nH]1 (stereo not given) [OXFENDAZOLE] ?
Result block: 4

FYI, the data here is from ChEMBL document CHEMBL3885881.
